Reference for the values: PubChem BioAssay AID485346

Test System: Protein Mdm4 (Homo sapiens) + E3 ubiquitin-protein ligase Mdm2 (Homo sapiens) (UniProt O15151+Q00987)
Sequence (O15151 whole entry, looked up): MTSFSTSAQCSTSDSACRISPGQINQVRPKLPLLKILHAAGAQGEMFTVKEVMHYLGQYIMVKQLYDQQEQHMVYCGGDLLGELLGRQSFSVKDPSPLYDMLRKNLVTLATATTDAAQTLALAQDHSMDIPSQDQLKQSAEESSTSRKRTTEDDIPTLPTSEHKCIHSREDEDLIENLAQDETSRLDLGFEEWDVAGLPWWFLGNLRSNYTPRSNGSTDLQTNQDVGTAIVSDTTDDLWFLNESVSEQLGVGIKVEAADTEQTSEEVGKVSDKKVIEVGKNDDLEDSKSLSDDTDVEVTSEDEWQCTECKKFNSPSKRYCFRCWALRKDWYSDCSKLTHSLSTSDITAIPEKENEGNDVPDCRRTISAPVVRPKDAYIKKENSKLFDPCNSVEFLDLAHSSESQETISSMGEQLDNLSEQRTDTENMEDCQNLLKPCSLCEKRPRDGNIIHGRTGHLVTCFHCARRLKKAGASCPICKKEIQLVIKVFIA
Sequence (Q00987 whole entry, looked up): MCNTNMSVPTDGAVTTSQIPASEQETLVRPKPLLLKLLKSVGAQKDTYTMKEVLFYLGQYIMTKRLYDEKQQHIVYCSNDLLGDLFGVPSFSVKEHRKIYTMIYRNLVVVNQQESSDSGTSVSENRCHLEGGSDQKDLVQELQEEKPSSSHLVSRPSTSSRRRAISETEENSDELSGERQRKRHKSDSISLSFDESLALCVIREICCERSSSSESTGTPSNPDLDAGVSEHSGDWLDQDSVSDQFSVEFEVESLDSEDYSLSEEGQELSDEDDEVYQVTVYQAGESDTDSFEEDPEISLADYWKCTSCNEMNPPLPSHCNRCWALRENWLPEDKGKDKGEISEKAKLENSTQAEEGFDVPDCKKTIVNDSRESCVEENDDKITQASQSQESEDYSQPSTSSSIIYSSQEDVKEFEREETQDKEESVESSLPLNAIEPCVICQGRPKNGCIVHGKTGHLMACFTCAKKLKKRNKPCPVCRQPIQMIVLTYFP
Test Name: inhibitors of human Mdm2-MdmX association, primary screen, cell-based, luminescence, split luciferase, SaOS-2, uHTS (AID 485346)
Measurement Parameters: SaOS-2 split-luciferase Mdm2/MdmX complementation, at 8 µM, active compounds read high
Out of some 330,000 compounds screened, about 10,000 (3%) were called active. The full list was thinned out, with actives kept by preference.
Measurement Label: inhibition

Some solved cases for reference:
compound=CN=c1scc(-c2cc(OC)ccc2OC)n1/N=C/c1c(C)[nH]c2ccccc12 measurement_label=inhibition value_reported="20.3% (inactive)"
compound=COc1ccc(N=Cc2c(O)[nH]c3ccccc23)cc1OC measurement_label=inhibition value_reported="61.3% (active)"
compound=CC[C@@]1(C(=O)OC)N[C@H](CN(C)C(C)=O)[C@@H]2C(=O)N(C)C(=O)[C@@H]21 measurement_label=inhibition value_reported="-30.9% (inactive)"

Write down inhibition measured for item CCc1ccccc1NC(=O)[C@@H]1CCC(=O)N1C1OC(=O)c2c1ccc(OC)c2OC (stereo not given in full)
18.1% (inactive)

Please list inhibition recorded for the compound COc1cc(/C=N/NC(=O)Cc2ccccc2)cc(OC)c1OC
4.45% (inactive)

Specify reported inhibition for the compound shown: O=C(CSc1nc2ccc(Nc3nc(N4CCOCC4)nc(N4CCOCC4)n3)cc2s1)NCc1ccco1
20.3% (inactive)
